- System under test: human muscarinic M2 receptor (Homo sapiens, UniProt P08172)
- Sequence (P08172 whole entry): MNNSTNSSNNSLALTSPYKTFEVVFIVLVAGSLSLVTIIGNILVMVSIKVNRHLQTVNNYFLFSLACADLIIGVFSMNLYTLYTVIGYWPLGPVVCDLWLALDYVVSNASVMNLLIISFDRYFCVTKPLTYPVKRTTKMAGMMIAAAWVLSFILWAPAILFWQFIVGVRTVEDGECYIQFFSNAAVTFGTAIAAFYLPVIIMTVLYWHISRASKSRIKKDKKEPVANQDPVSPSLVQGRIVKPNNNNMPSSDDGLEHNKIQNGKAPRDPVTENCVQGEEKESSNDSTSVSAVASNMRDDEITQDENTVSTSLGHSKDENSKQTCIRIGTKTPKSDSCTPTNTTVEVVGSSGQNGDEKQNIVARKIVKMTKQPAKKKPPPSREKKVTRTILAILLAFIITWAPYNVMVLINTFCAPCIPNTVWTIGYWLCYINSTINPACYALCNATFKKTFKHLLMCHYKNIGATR
- Method summary: Alphascreen Surefire phospho-ERK1/2 functional assay, M2
- Test parameters: CHO, read-out: % Emax cf. ACh, M2, CHO cells stably expressing human M2; relative to ACh
The following ranges of Emax define the classes used here: small value (below 6%), mid value (6% to below 20%), large value (20% or more)

Q: Which of the defined bands does the recorded Emax of COC(=O)N1CCC2(CC(N3CCC(c4nc(Cl)c(Cl)n4C)CC3)C2)C1 (single isomer, unassigned) [1-16 Isomer 2] sit within?
Ans: large value

Q: Which of the defined bands does the recorded Emax of CCOC(=O)N1CCC2(CC(N3CCC(c4ccon4)CC3)C2)C1 (single isomer, unassigned) [1-43 Isomer 2] sit within?
Ans: mid value

Q: Which of the defined bands does the recorded Emax of CCOC(=O)N1CCC2(CC(N3CCC(C4CCCN4C(=O)CC)CC3)C2)C1 (single isomer, unassigned) [2-6 Isomer 2] sit within?
Ans: large value

Q: Which of the defined bands does the recorded Emax of CCOC(=O)N1CCC2(CC(N3CCC(N4CCNC4=O)CC3)C2)C1 (single isomer, unassigned) [2-124 Isomer 2] sit within?
Ans: small value

Q: Which of the defined bands does the recorded Emax of CCOC(=O)N1CCC2(CC(N3CCC(C4CCCN4C(=O)N(C)C)CC3)C2)C1 (single isomer, unassigned) [2-20 Isomer 2] sit within?
Ans: small value

Q: Which of the defined bands does the recorded Emax of CCOC(=O)N1CCC2(CC(N3CCC([C@@H]4CCCN4C(=O)N4CCCC4)CC3)C2)C1 (single isomer, unassigned) [2-32 Isomer 2] sit within?
Ans: large value

Q: Which of the defined bands does the recorded Emax of CCOC(=O)N1CCC2(CC(N3CCC([C@@H]4CCCN4Cc4ccccc4)CC3)C2)C1 (single isomer, unassigned) [2-74 Isomer 2] sit within?
Ans: mid value

Q: Which of the defined bands does the recorded Emax of CCOC(=O)N1CCC2(CC(N3CCC([C@@H]4CCCN4C(=O)NCCOC)CC3)C2)C1 (single isomer, unassigned) [2-31 Isomer 2] sit within?
Ans: mid value
